# TARGET_OR_SYSTEM: HLA-B*08:01
# PROCEDURE_TEXT: IEDB peptide-MHC binding, purified MHC/competitive/radioactivity; bounds were set here for any values at or beyond the usual limits of such assays
# TEST_PARAMETERS: source organism: Triticum aestivum
pIC50: −log10 of the molar value.
// class 0 strictly below 7 in pIC50; class 1 otherwise

Is it the case that MNIASASRL has pIC50 reaching or exceeding 7?
class 0

Has FLLQQCKPV a recorded pIC50 greater than or equal to 7?
class 1

Hello, I need to know if MKTFLILAL has measured pIC50 not below 7. Thanks!
class 0

Hello, I need to know if SSQVLQQSTY has measured pIC50 not below 7. Thanks!
class 0

State whether the measured pIC50 reaches 7, counting equality as reaching it, for LIPCRDVVL
class 0

Identify whether the reported pIC50 of the following sequence is 7 or greater: LLQQCKPVSL
class 1

Record QLEAIRSLV ; criterion: pIC50 no lower than 7. Met?
class 0

Hi team, for WLQQQLVPQL , is the recorded pIC50 at or above 7?
class 0
